Target: Nuclear receptor coactivator 3 (Homo sapiens)
Assay: SRC3 coactivator transcriptional activity inhibitors, confirmation, cell-based, luminescence, quadruplicate (AID 588792);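 also: 0% = DMSO treated cells and 100% = gossypol at 36 µM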
Conditions: HEK293 GAL4-SRC3 luciferase reporter, at 3.6 µM
Active and inactive are the calls of the source.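 The calls were made as follows: active = mean inhibition over 43.08%, the solvent-only control mean plus 3 SD; inactive = the rest.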
Thanks in advance; please answer with one of these: active, inactive

Solved cases below.
compound	class name
COc1ccc(C(=O)Nc2ccc(C)cn2)c(OC)c1	inactive
CC(/C=C1\SC(=O)N(CCCC(=O)O)C1=O)=C\c1ccccc1	active
COc1cc(/C=C2/SC(=S)N(c3ccccc3)C2=O)ccc1Oc1nc(N2CCOCC2)nc(N2CCOCC2)n1	inactive
Cc1ccc(S(=O)(=O)Nc2cc(Cl)c(O)c3ncccc23)cc1	inactive
OCC(O)C(O)C(O)C(O)C1NCCS1 (stereo unspecified)	inactive

# evaluate next
Query: What call does the record list for CS(=O)(=O)c1ccc(Sc2nc3ccccc3s2)c([N+](=O)[O-])c1 ?
Result: active

* * *

Test system: transactivating tegument protein VP16 (Human herpesvirus 1), Gal4-VP16 luciferase reporter
Assay: VP16 transactivation inhibitors, counter-screen for SRC3 inhibitor project, cell-based, luminescence, high throughput (AID 588794)
Details: mammalian cells, VP16-driven luciferase reporter luminescence; at 3.6 µM; stronger effect = higher value
Class field: derived from inhibition; ranges bin A (below 20%), bin B (20% to below 50%), bin C (50% or more)

See these solved cases before continuing.
molecule	class name
CCN(CC)S(=O)(=O)c1cccc(NC(=O)Nc2cccc(C(F)(F)F)c2)c1	bin A
CC1CCN(Cc2c(C(=O)N/N=C/c3ccccc3O)nnn2-c2nonc2N)CC1	bin B
Cc1c(C)c2ccc(OCC(=O)Nc3ccccn3)c(C)c2oc1=O	bin C
CC(=O)Nc1nc(C)c(-c2csc(Nc3cccc([N+](=O)[O-])c3)n2)s1	bin A
Cc1cccc(NC(=O)c2cnn(C)c2)c1C	bin A
CCCCCCCCCn1ccc(=N)cc1	bin C
Oc1ccccc1N=Nc1nc(-c2ccccc2)c(-c2ccccc2)[nH]1	bin C
COc1ccc(C)cc1NC(=O)CN1C(=O)CSc2ccc(S(=O)(=O)N3CCCC3)cc21	bin A

Query: Tag the class for Nc1ccc(Cn2ccc3c4c(N)nc(N)nc4ccc32)cc1
Result: bin B

Query: Class for CC12CCC(C(=O)N/N=C/c3ccc(O)cc3O)(OC1=O)C2(C)C (stereo unspecified) ?
Result: bin A

* * *

Biological target: Nuclear receptor subfamily 5 group A member 2 (Homo sapiens) (UniProt O00482)
Sequence (O00482 whole entry, looked up): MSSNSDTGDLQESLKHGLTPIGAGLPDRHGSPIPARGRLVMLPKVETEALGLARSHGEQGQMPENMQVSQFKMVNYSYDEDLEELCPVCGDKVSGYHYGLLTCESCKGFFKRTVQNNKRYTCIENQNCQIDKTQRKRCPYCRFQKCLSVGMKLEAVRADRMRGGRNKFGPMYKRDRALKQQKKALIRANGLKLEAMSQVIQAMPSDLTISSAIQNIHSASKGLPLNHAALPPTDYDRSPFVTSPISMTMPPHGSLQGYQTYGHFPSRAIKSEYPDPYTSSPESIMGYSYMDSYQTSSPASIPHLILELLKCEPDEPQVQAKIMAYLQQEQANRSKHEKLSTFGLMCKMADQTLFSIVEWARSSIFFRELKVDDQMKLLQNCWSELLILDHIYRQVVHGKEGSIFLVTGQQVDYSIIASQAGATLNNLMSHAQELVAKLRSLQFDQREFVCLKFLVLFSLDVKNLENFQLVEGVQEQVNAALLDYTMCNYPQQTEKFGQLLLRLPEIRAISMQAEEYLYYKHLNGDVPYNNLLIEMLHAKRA
Test: LRH-1 (NR5A2) inverse agonists, retest, confirmation, cell-based, luminescence (AID 651613);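 also: HEK293T cells co-transfected with LRH-1 and StAR promoter luciferase reporter; 0% = vehicle wells and 100% = parental cells lacking receptor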
Details: cell-based LRH-1 luciferase reporter, inverse agonism; at 3.6 µM; stronger effect = higher value
For each entry below, report its inhibition value.
Give bare numbers, in %.

As a guide, the following entries are already answered.
molecule	unit label	inhibition
CCOC(=O)C1CCCN(S(=O)(=O)c2ccc(S(=O)(=O)N(CC)CC)cc2)C1 (centres undefined)	%	60.3
c1ccc(-c2nc(NCc3cccnc3)c3oc4ccccc4c3n2)cc1	%	62.4
COc1ccc(-c2nn(C)c(=O)c3ccccc23)cc1NS(C)(=O)=O	%	53.6

Give inhibition for each listed item.
1. CS(=O)(=O)N1CCN(c2ccccc2NC(=O)c2cc3ccccc3o2)CC1
2. COC(=O)C1(C)Nc2ccccc2C(=O)N1c1ccccc1C (centres undefined)
3. COc1ccc2cc3c(N)nn(C(=O)c4ccccc4[N+](=O)[O-])c3nc2c1
4. c1ccc(-c2nc(N3CCCCCC3)c3ccccc3n2)nc1

Result:
47.5
16
67.5
63.5

Would you mind listing inhibition for each of the following molecules?
1. COc1cccc(C(=O)COc2cccc(NC(=O)c3cccc([N+](=O)[O-])c3)c2)c1
2. O=C(Nc1ccc(Cc2ccncc2)cc1)c1cccc([N+](=O)[O-])c1
3. CCn1c(CN2CCN(c3ccc(Cl)cc3)CC2)nc2ccccc21

Result:
[62.4, 52.4, 46]

Would you be so kind as to report inhibition for each listed record?
1. CCCC(=O)Nc1sc2c(c1C(=O)Nc1ccccn1)CCCC2
2. CS(=O)(=O)N(CC(=O)N1CCN(Cc2ccc3c(c2)OCO3)CC1)Cc1ccc(Cl)cc1
3. COc1cccc(COC(=O)C2CC(=O)N(Cc3ccco3)C2)c1OC (centres undefined)

Result:
1. 47.1
2. 63
3. 30.3

For each of the molecules below, state inhibition.
1. NC(=S)N/N=C/c1ccc([N+](=O)[O-])cc1
2. Cc1cccc(CN2C(=O)CSc3ccc(C(=O)NC4CC4)cc32)c1
3. COc1ccc(N2CCN(C(=O)CSc3nnc(-c4cc5ccccc5cc4O)n3C)CC2)cc1
4. COC(=O)c1c(NC(=O)c2ccco2)sc2c1CCN(C(C)=O)C2
5. Oc1[nH]c2ccccc2c1N=NC(=S)N1CCOCC1

Result:
1: 42.7; 2: 62.2; 3: 59; 4: 54.4; 5: 78.3
